Reference for the values: ChEMBL document CHEMBL1144986

Collected log10(Ki) values appear next to each entry.
- study-target: 5-hydroxytryptamine receptor 2A (Rattus norvegicus)
- Sequence (P14842 whole entry): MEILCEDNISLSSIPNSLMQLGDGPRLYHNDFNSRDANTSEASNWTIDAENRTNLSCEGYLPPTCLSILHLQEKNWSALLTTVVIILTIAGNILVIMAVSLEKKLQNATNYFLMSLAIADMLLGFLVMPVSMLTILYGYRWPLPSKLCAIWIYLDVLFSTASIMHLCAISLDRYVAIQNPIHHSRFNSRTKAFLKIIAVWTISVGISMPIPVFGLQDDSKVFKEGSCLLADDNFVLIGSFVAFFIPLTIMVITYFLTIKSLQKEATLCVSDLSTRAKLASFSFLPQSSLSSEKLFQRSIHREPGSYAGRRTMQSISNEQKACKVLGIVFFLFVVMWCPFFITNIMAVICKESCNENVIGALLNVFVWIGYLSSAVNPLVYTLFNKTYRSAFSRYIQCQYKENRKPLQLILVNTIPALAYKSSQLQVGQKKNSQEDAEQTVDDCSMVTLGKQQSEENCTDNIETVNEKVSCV
- protocol-text: Binding affinity towards cloned rat 5-hydroxytryptamine 2A receptor by [3H]ketanserin displacement.
Reminder: these figures are log10 of reported Ki, in µM before transformation.

Field: example entries. Status: answers known.
[[record]]
structure_string = "COc1cccc2[nH]c3c(c12)CCNC3"
experimental_value = -0.89

[[record]]
structure_string = "Brc1cccc2c3c([nH]c12)C=NCC3"
experimental_value = -0.96

[[record]]
structure_string = "COc1cccc2c3c([nH]c12)C=NCC3"
experimental_value = 0.51

[[record]]
structure_string = "Brc1cccc2c3c([nH]c12)CNCC3"
experimental_value = -1.66

[[record]]
structure_string = "COc1cccc2c3c([nH]c12)CNCC3"
experimental_value = -0.19

[[record]]
structure_string = "C1=NCCc2c1[nH]c1cccc(OCc3ccccc3)c21"
experimental_value = -0.91

[[record]]
structure_string = "Brc1ccc2[nH]c3c(c2c1)CCNC3"
experimental_value = -0.30

[[record]]
structure_string = "Brc1ccc2c3c([nH]c2c1)CNCC3"
experimental_value = -0.62


Entry "COc1ccc2[nH]c3c(c2c1)CCNC3" , log10(Ki) reported as 0.68

Form field log10(Ki), entry "Brc1ccc2c3c([nH]c2c1)C=NCC3" : 0.12

Entry under test: "COc1ccc2[nH]c3c(c2c1)CCN=C3" . Its log10(Ki) was 0.37

# molecule "Brc1cccc2[nH]c3c(c12)CCN=C3" ; its log10(Ki) = -0.41

Input "c1ccc2c3c([nH]c2c1)CNCC3" . Output log10(Ki): 0.58

Per the record, "CC1=NCCc2c1[nH]c1cccc(OC(C)C)c21" has log10(Ki) of -0.33

For this molecule ( "COc1ccc2c3c([nH]c2c1)CNCC3" ), measured log10(Ki) is 0.66

Recorded log10(Ki) (molecule "Brc1cccc2[nH]c3c(c12)CCNC3" ): -0.74

Data point: "Brc1ccc2[nH]c3c(c2c1)CCN=C3" ; log10(Ki) = 0.24

Record summary for "COc1cccc2[nH]c3c(c12)CCN=C3" : reported log10(Ki) = -0.33
